- protocol-text: reversal of MRP1-mediated doxorubicin resistance, pilot screen, H69AR cells, doxorubicin co-treatment (AID 601)
- study-conditions: H69AR cells + 2 uM doxorubicin, CellTiter-Glo, 72 h; measured here: viability with 2 uM doxorubicin; at 10 µM; stronger effect = lower value
observation-type: viability (%)

| compound | result |
| --- | --- |
| NS(=O)(=O)c1ccc(CCNC(=O)CCC2COc3ccccc3O2)cc1 (centres undefined) | 87.5 |
| Cc1nnc(SCCn2c(Br)nc3c2c(=O)n(C)c(=O)n3C)s1 | 97.5 |
| Clc1ccc2c(c1)C(N1CCNCC1)=Nc1ccccc1O2 | 73 |
| Cc1nn(Cc2ccccc2Cl)c(C)c1NC(=O)C1C2CCC(O2)C1C(=O)O (centres undefined) | 87.8 |
| O=C1CC(c2ccccc2)NC(=O)N1 (centres undefined) | 96.1 |
| Cc1nc(C)c(C(=O)C2=C(O)C(=O)N(CCCn3ccnc3)C2c2ccccc2)s1 (centres undefined) | 94.1 |
| COc1cccc(-n2c(CNc3ccc(F)cc3)nnc2SCC(N)=O)c1 | 81.6 |
| CC(c1ccco1)N(Cc1ccco1)C(=O)Nc1ccccc1 (centres undefined) | 67.6 |
| C=CCn1c(SCC(=O)C(C)(C)C)nnc1-c1ccccn1 | 92.6 |
| Cc1nc(-c2cccc(-c3noc(C)n3)c2)no1 | 95.8 |
| COc1ccccc1-n1c(C)nnc1SCC(=O)Nc1cccc(C(C)=O)c1 | 97 |
| CC(C)COC(=O)C(C#N)c1nc2ccccc2nc1N1CCN(Cc2ccccc2)CC1 (centres undefined) | 80.6 |
| CCCCC(=NCCO)C1=C(O)C(C(=O)OC)C(C)(C)CC1=O (centres undefined) | 90.5 |
| CCOc1ccc(/C=N/n2cnnc2)cc1 | 88.9 |
| C=CCn1c(SCC(=O)Nc2ccc3c(c2)OCO3)nc2ccccc2c1=O | 82.1 |
| COc1cc(NC(=O)c2ccc(COCC(F)(F)F)o2)cc(OC)c1OC | 79.5 |
| CCCCC(=O)O[C@H]1CC[C@H]2[C@@H]3CCc4cc(O)ccc4[C@H]3CC[C@]12C | 6.17 |
| O=C(CN1CCN(C2CCCCC2)CC1)Nc1ccccc1-c1ccccc1 | 76.7 |
| CC(=O)Nc1ccccc1O | 95.7 |
| O=C(CCc1ccc(S(=O)(=O)N2CCOCC2)cc1)NCCc1ccccn1 | 102 |
| CCCOc1ccccc1NC(=O)c1ccc(N)cc1 | 90.6 |
| CSc1c(C#N)c(N)c(C#N)c2c1COC(C)(C)C2 | 89.1 |
| Cc1occc1C(=O)Nc1ccc(S(=O)(=O)N2CCN(C)CC2)cc1 | 84.5 |
| CCc1nc(N)nc(N)c1-c1ccc(Cl)cc1 | 95.8 |

###

- protocol-text: growth suppression of yeast trafficking mutant, preliminary HTS, modulators of trafficking downstream of Golgi apparatus project, 1536-format plate, OD 615 nm (AID 637)
- study-conditions: yeast transport mutant growth, absorbance 615 nm, 18 h; stronger effect = higher value
# Lookup of reported inhibition keyed by entry
observation-type: inhibition (%)

| compound | observation-type | value-units | result |
| --- | --- | --- | --- |
| COc1cc2c(C#N)c(N3CCN(c4ccccc4OC)CC3)nc(N)c2c(N)n1 | inhibition | % | 5.9 |
| Cc1sc2nc(SCC(=O)Nc3c(C)n(C)n(-c4ccccc4)c3=O)n(C)c(=O)c2c1C | inhibition | % | 1.15 |
| CC(C)Cn1c(=O)c(C(=O)NCc2ccccn2)c(O)c2ccccc21 | inhibition | % | -3.17 |
| Cc1occc1C(=O)Nc1cccnc1 | inhibition | % | 2.9 |
| CCOC(=O)N1CCC(NC(=O)Cc2ccc(-n3c(=O)[nH]c4ccccc4c3=O)cc2)CC1 | inhibition | % | 0 |
| CCCC(OC(=O)CN1C(=O)COc2ccccc21)C(=O)NC1CCCC1 (centres undefined) | inhibition | % | 3.09 |
| COc1cccc(C=Nc2ccc3c(c2)OCCO3)c1O | inhibition | % | -0.33 |
| CC[C@]1(O)CC2CN(CCc3c([nH]c4ccccc34)[C@@](C(=O)OC)(c3cc4c(cc3OC)N(C=O)[C@H]3[C@@](O)(C(=O)OC)[C@H](OC(C)=O)[C@]5(CC)C=CCN6CC[C@]43[C@@H]65)C2)C1 (some centres undefined) | inhibition | % | -3.67 |
| CC(Sc1nnnn1C)C(=O)Nc1ccc(Oc2ccccc2)cc1 (centres undefined) | inhibition | % | 0.97 |

###

# Lookup of reported viability keyed by entry
- protocol-text: HUVEC growth inhibition – cell-based, human, primary screen (AID 575);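 further: 100% = median of untreated cell wells with 0.1% DMSO on each plate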
- study-conditions: HUVEC proliferation, CellTiter-Glo luminescence, 72 h; at 10 µM; stronger effect = lower value

| compound | viability [%] |
| --- | --- |
| CC1CCCCC1NC(=O)COc1ccc(-n2cnnn2)cc1 (stereo unspecified) | 103 |
| Cc1noc(NS(=O)(=O)c2ccc(NC(=O)CCC3CCCC3)cc2)c1C | 88.9 |
| CN(C)C(CNC(=O)Nc1cccc(Cl)c1)c1cccnc1 (stereo unspecified) | 96.6 |
| CC(=O)NCCC(=O)Nc1ccc(C)c(F)c1 | 110 |
| CN(Cc1ccc(-n2cccn2)cc1)C(=O)c1cnn2c1NC(c1ccco1)CC2C(F)(F)F (stereo unspecified) | 82.3 |
| Cc1ccc(NC(=O)COc2nc(C)cs2)cc1 | 97.5 |

###

- protocol-text: growth suppression of yeast trafficking mutant, preliminary HTS, modulators of trafficking downstream of Golgi apparatus project, 1536-format plate, OD 615 nm (AID 637)
- study-conditions: yeast transport mutant growth, absorbance 615 nm, 18 h; stronger effect = higher value
Calls of active or inactive are those of the source. No stated cut-off is given here; in the data, active means inhibition above about 30%; inactive means the rest.
# Lookup of reported inhibition keyed by entry
observation-type: inhibition

| molecule | result |
| --- | --- |
| O=C(CN1C(=O)COc2ccccc21)NCCN1CCc2ccccc2C1 | -1.59% (inactive) |
| Cc1ccc(C)c(NS(=O)(=O)c2ccc(NC(=O)c3ccco3)cc2)c1 | -6.91% (inactive) |
| CCCN1Cc2cccc(C(=O)NCc3cccs3)c2C1=O | -1.45% (inactive) |
| O=C(Nc1ccc2nn(-c3ccccc3)nc2c1)c1ccc(Br)o1 | -10.3% (inactive) |
| O=C(NC(NC1CCS(=O)(=O)C1)C(=O)c1cccs1)c1ccccc1 (stereo not given) | -3.33% (inactive) |
| Cc1cccn2c(=O)c3cc(C(=O)NC4CCCC4)c(=N)n(C4CCCC4)c3nc12 | 0.81% (inactive) |
| CC(C)[N+]1(C)[C@@H]2CC[C@H]1CC(OC(=O)C(CO)c1ccccc1)C2 (stereo not given in full) | -2.83% (inactive) |
| Cn1c(=O)c2c(nc(-n3ccnc3)n2C)n(C)c1=O | 1.59% (inactive) |
| Cc1c(NC(=O)c2coc(=O)c(Br)c2)c(=O)n(-c2ccccc2)n1C | -4.92% (inactive) |
| Cc1onc(-c2ccccc2)c1C(=O)N1CCCSC1=Nc1ccccc1 | 0.63% (inactive) |
| O=C(Nc1ccccc1C(=O)NCCCn1ccnc1)c1ccccc1 | -8% (inactive) |
| CC(=O)NCc1ccc(C(=O)CSc2nnc(-c3ccncc3)n2Cc2ccccc2)o1 | 10.3% (inactive) |
| Cc1nnc(NC(=O)CSc2nnc(-c3ccc(S(=O)(=O)N4CCCC4)cc3)n2C)s1 | -2.1% (inactive) |
| Cc1oc(-c2ccc(Cl)cc2)cc1-c1nn2c(-c3ccoc3C)nnc2s1 | 3.06% (inactive) |
| CCOC(=O)C1CCCN(c2c(Nc3ccc(C)c(C)c3)c(=O)c2=O)C1 (stereo not given) | -4.43% (inactive) |
| COc1cc(Nc2cc(C)nc3ncnn23)cc(OC)c1OC | -3.11% (inactive) |
| CC(=O)c1ccc(-n2nnnc2SCC(=O)N2CCc3ccccc3C2)cc1 | -14.7% (inactive) |
| CS(=O)(=O)N(CC(=O)N1CCCCCC1)c1ccc(Br)cc1 | -10% (inactive) |
| COc1ccc(-c2noc(C3CCCN(C(=O)CCc4ccccc4)C3)n2)cc1 (stereo not given) | 11.1% (inactive) |
| Cc1cccc(NC(=O)c2ccc(S(=O)(=O)N(C)C)cc2)n1 | 2.73% (inactive) |
| CC1CCc2nc(NC(=O)CN3CCN(Cc4ccc5c(c4)OCO5)CC3)sc2C1 (stereo not given) | 2.1% (inactive) |
| COc1ccc(-c2cc3ccc(OCc4nn[nH]n4)cc3oc2=O)cc1 | 1.29% (inactive) |
| COc1ccccc1NS(=O)(=O)c1ccc(OC)c(OC)c1 | 6.56% (inactive) |
| O=C(O)CCc1ccc(-c2cccs2)n1NC(=O)c1ccccc1Br | 4.36% (inactive) |
| O=C(Nc1cc(C(F)(F)F)ccc1N1CCCC1)c1ccc2c(c1)OCO2 | -5.09% (inactive) |
| COc1ccccc1N1CCN(C/C(O)=C(\C#N)c2nc(-c3ccccc3)cs2)CC1 | 12.5% (inactive) |
| CCOc1ccc(NC(=O)c2ccncc2)cc1 | -0.63% (inactive) |
| Cc1ccccc1-c1nc(CS(=O)(=O)CC(=O)NCc2ccccc2)c(C)o1 | -2.3% (inactive) |
| CN(Cc1ccccc1)Cc1nc2c([nH]1)c(=O)[nH]c(=O)n2C | -1.31% (inactive) |
| CCOC(=O)Cn1nnnc1CN(Cc1ccc(OC)cc1)Cc1cc2cc(C)ccc2[nH]c1=O | 4.55% (inactive) |
| CS(=O)(=O)N1CCc2cc(C(=O)N3CCCCC3)ccc21 | 1.75% (inactive) |
| COc1ccc(CNc2oc(COc3ccccc3Cl)nc2C#N)cc1 | 14.1% (inactive) |
| CCC(=O)N1CCc2cc(Br)cc(S(=O)(=O)C3(C(=O)OC)CC3)c21 | 0.79% (inactive) |
| Cc1ccc(S(=O)(=O)NC(C(=O)OCC(=O)NC2CCS(=O)(=O)C2)C(C)C)cc1 (stereo not given) | 0.63% (inactive) |
| CCCC(=O)Nc1ccccc1NC(=O)CCC | -2.38% (inactive) |
| CCc1ccc(NC(=O)c2cc(-c3ccco3)on2)cc1 | -4.6% (inactive) |
| COc1nc2ccc(C)cc2cc1-c1noc(-c2cccnc2)n1 | -2.54% (inactive) |
| Cc1ccc(-n2c(SCC3CCCCO3)nnc2-c2ccco2)cc1 (stereo not given) | -8.5% (inactive) |
| CN(C)S(=O)(=O)c1cccc(C(=O)Nc2cccnc2)c1 | 1.43% (inactive) |
| Cn1c(=O)c2[nH]cnc2n(C)c1=O | -2.83% (inactive) |
| COc1ccccc1NC1=NC(c2ccc(Cl)cc2)N=C(N)N1 (stereo not given) | 0% (inactive) |
| CCOC(=O)C1CN(S(=O)(=O)c2ccc(C)cc2)CCN1S(=O)(=O)c1ccc(C)cc1 (stereo not given) | -1.8% (inactive) |
| CS(=O)(=O)N(CC(=O)NC1CC1)c1cccc(F)c1 | 0% (inactive) |
| COc1cc(C(Nc2ccc3c(c2)OCO3)C(=O)NC2CCCCC2)cc(OC)c1OC (stereo not given) | 7.94% (inactive) |
| CCc1ccc(CCC(=O)Nc2ccc(C)c(C)c2)o1 | -3.65% (inactive) |
